The compounds below each have a reported IC50 tested on Vascular endothelial growth factor receptor 1 (Homo sapiens); the values come from various publications.

Some compounds with known IC50 results, for comparison:
{"columns": ["compound", "observed.measurement"],
 "data": [
  ["COCCOc1ccc(Nc2ncnc(-n3c(N)nc4ccccc43)n2)cc1OC", "> 11000 nM"],
  ["CCN1CCC(Nc2ccc3c(c2)/C(=C(\\c2cccc(OC)c2)c2nc4ccccc4[nH]2)C(=O)N3)CC1", "< 50 nM"],
  ["COc1cc(Nc2ncnc(-n3c(Nc4cccc(C(=O)O)c4)nc4ccccc43)n2)cc(OC)c1OC", "779 to 4670 nM"],
  ["COc1cc(Nc2ncnc(Nc3ccc(C(C)C)cc3)n2)cc(OC)c1OC", "> 11400 nM"],
  ["CS(=O)(=O)Nc1cccc(-c2cnc3[nH]cc(C(=O)c4cccc(OC(F)(F)F)c4)c3c2)c1", "≤ 10000 nM"],
  ["Cc1ccc(F)c(NC(=O)Nc2ccc(Oc3ccnc4cc(C(=O)NCCCc5nn[nH]n5)sc34)cc2)c1", "4 nM"]
]}

Query :: What does the data say about its IC50? Entry: O=C(O)COc1ccc(F)c(Cc2c[nH]c3ncc(-c4cccnc4)cc23)c1F
Result :: ≤ 10000 nM

Query :: Which IC50 value belongs to CCOC(=O)CCCNC(=O)c1cc2nccc(Oc3ccc(NC(=O)Nc4cc(C)ccc4F)c(F)c3)c2s1 ?
Result :: 15 nM

Query :: Which IC50 is reported for this compound? COc1cc(Nc2ncnc(N3c4ccccc4CC3C)n2)cc(OC)c1OC (stereo not shown)
Result :: < 1020 nM

Query :: Tell me the measured IC50 of COc1ccc(Nc2ncnc(Nc3ccc4[nH]ccc4c3)n2)cc1OC , please.
Result :: 1100 to 6620 nM

Query :: IC50 for c1ccc(C(CNCc2c[nH]c3ncccc23)c2ccccc2)cc1 ?
Result :: ≤ 10000 nM

Query :: Quick check: IC50 of O=S(=O)(NCc1c[nH]c2ncccc12)c1ccsc1 ?
Result :: ≤ 10000 nM

Query :: Endpoint output: IC50 of COC(=O)CN(CCNC(=O)c1c[nH]c(-c2cc(Oc3ccc(NC(=O)Nc4cc(C)ccc4F)cc3)ccn2)c1)CC(=O)OC . Value?
Result :: 8 nM

###

Literature-derived pIC50 for Vascular endothelial growth factor receptor 1 (Homo sapiens) follows.
pIC50: −log10 of the molar value.

Some entries whose results are on file:
{"columns": ["smiles.entry", "measured.quantity", "observed.measurement"],
 "data": [
  ["CCCCS(=O)(=O)Nc1ccc(F)c(C(=O)c2c[nH]c3ncc(-c4cnn(C)c4)cc23)c1F", "pIC50", "≥ 5.00"],
  ["COc1cc(Nc2ncnc(N(C)c3ccc(Cl)cc3)n2)cc(OC)c1OC", "pIC50", "5.22 to 6.00"],
  ["Cn1cc(-c2cnc3[nH]cc(Cc4cc(F)c(O)cc4F)c3c2)cn1", "pIC50", "≥ 5.00"],
  ["CCN1CCC(Nc2ccc3c(c2)/C(=C(\\c2ccc([N+](=O)[O-])cc2)c2nc4ccccc4[nH]2)C(=O)N3)CC1", "pIC50", "6.30 to 7.30"],
  ["NCc1ccc(Nc2ncnc(Nc3cc(-c4ccco4)n[nH]3)n2)cc1", "pIC50", "5.16 to 5.94"],
  ["COc1cc(Nc2ncnc(-n3ccc4cc(O)ccc43)n2)cc(OC)c1OC", "pIC50", "> 5.99"],
  ["COc1cc(Nc2ncnc(Nc3cc(-c4ccccc4)n[nH]3)n2)cc(OC)c1OC", "pIC50", "> 6.02"]
]}

Next:
Query :: Requested field: pIC50. Item: COc1cc(Nc2ncnc(N(c3ccc(Cl)cc3)c3nc4ccccc4[nH]3)n2)cc(OC)c1OC
Result :: 5.32 to 6.10
